Entries and their self-cleavage values follow.
B1: HDV Ribozyme (parent)
chain: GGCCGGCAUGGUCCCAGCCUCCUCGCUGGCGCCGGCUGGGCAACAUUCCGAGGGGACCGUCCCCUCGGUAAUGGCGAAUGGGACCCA

Variants of: B1
Assay: self-cleavage, relative activity (ratio to wild type); higher = more cleavage; co-transcriptional
Form rule: numeric answer, no unit written next to it.

Lab note: U37C G82A gave self-cleavage of 0.173

Now for another entry.
Lab note: C21G G82A gave self-cleavage of 0.101
